System: LXRa:RXRa (NR concentration 270 nM, RXRa partner concentration 90 nM)
protocol.notes: PBM binding z-score (relative to random genomic background probes); higher = stronger binding; sequences stand for … in GC…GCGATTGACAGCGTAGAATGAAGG
property.label: PBM binding z-score

[[record]]
sequence_data = "CATTACGGGTCAAGGTTATAGCACGGGTGGTACG"
property_label = "PBM binding z-score"
measured_result = 5.21

[[record]]
sequence_data = "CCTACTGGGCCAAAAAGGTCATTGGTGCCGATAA"
property_label = "PBM binding z-score"
measured_result = 4.46

[[record]]
sequence_data = "ACTTACGGGTAAACGAGGTTATAGCACGCGTATA"
property_label = "PBM binding z-score"
measured_result = 2.57

[[record]]
sequence_data = "TAGCCTAGGTTAGATCGGGCCAGTATACGCTATA"
property_label = "PBM binding z-score"
measured_result = -0.519

[[record]]
sequence_data = "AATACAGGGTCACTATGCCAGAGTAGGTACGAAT"
property_label = "PBM binding z-score"
measured_result = 4.68

[[record]]
sequence_data = "ATATGTAGGTTAAGGGTCAGTCAGGTTGGTTCGC"
property_label = "PBM binding z-score"
measured_result = 3.26

[[record]]
sequence_data = "CCGACTGGGGCAGAAGGGTTACCATACCATCCGG"
property_label = "PBM binding z-score"
measured_result = -0.358

[[record]]
sequence_data = "CCGACTGCGGCAAGGTTACCATAACGCACAGCCA"
property_label = "PBM binding z-score"
measured_result = 0.827

[[record]]
sequence_data = "AATACTGGGTCATCGTAGGCCAGAGTACGCACAG"
property_label = "PBM binding z-score"
measured_result = 4.06

[[record]]
sequence_data = "GATACAGGGTCAAGGCGAGAGTACGCGTATTGAT"
property_label = "PBM binding z-score"
measured_result = 4.05

[[record]]
sequence_data = "CTGACTGGGGCAAAGGTTACCATACTCAGTACGA"
property_label = "PBM binding z-score"
measured_result = 1.87

[[record]]
sequence_data = "CCTGCTAGGTCAATGGTCAGCAAAAGCAGCTCGC"
property_label = "PBM binding z-score"
measured_result = 2.15

[[record]]
sequence_data = "GTACCAAGGTGGATAGGTCGTTGATGAGTAGGCG"
property_label = "PBM binding z-score"
measured_result = -0.16

[[record]]
sequence_data = "CGTCAAAGTTCAACTAAGGCAACGTAAAGCACGC"
property_label = "PBM binding z-score"
measured_result = 6.09

[[record]]
sequence_data = "CCTACTGGGCCAACGTCATTGATCAGTCAAAGCA"
property_label = "PBM binding z-score"
measured_result = -0.496

[[record]]
sequence_data = "TTACCATGGTGAAGGTCGTTGATCCCTCTGTAGA"
property_label = "PBM binding z-score"
measured_result = 1.54

[[record]]
sequence_data = "AGAATGACGTTATTAAGATCAGGGAATTGCGGTC"
property_label = "PBM binding z-score"
measured_result = -0.589

[[record]]
sequence_data = "TCTTGTAGATCAAAGGTTAGGAAAGCCGAAGCCT"
property_label = "PBM binding z-score"
measured_result = 1.45

[[record]]
sequence_data = "CCTGCTAGCTCATGGTCAGCTAATCTACAGTATG"
property_label = "PBM binding z-score"
measured_result = -0.418

[[record]]
sequence_data = "CGTCCAAGGTGAAGGTCAGTGAAAGAGACTCGAA"
property_label = "PBM binding z-score"
measured_result = 1.4

[[record]]
sequence_data = "CGAACTACGTCAAGGACAGTGAATCTCCGCACGC"
property_label = "PBM binding z-score"
measured_result = -0.458

[[record]]
sequence_data = "TCATTTAGGTAAACAGGTGAAAGTCCGTAAGTTA"
property_label = "PBM binding z-score"
measured_result = 1.13

[[record]]
sequence_data = "GCTTACGGGTCAAAGGTTATAGCCTGAATAGAAT"
property_label = "PBM binding z-score"
measured_result = 5.8

[[record]]
sequence_data = "CATACAGTGTCAGCTAGGCCAGAGTAGGGACGGC"
property_label = "PBM binding z-score"
measured_result = -0.284

[[record]]
sequence_data = "TCTCGGAGGATACGAAGGTCAGAGCTTTCCAGAG"
property_label = "PBM binding z-score"
measured_result = 0.672

[[record]]
sequence_data = "CGAACGAGGGCATGACTTGATAGCAAATGCCGAT"
property_label = "PBM binding z-score"
measured_result = 0.369

[[record]]
sequence_data = "TCATATAGGTAAATGCTAGATGAAAGTCCGATCT"
property_label = "PBM binding z-score"
measured_result = 0.34

[[record]]
sequence_data = "ATCTCTAGGTAACAATTTCAGTGAAAGAGAGGAC"
property_label = "PBM binding z-score"
measured_result = 0.589

[[record]]
sequence_data = "ATATGTGGGTTACATCCGGGTCATTCAGGCTATG"
property_label = "PBM binding z-score"
measured_result = 4.1

[[record]]
sequence_data = "GCTGCTAGGTCAGGTTGGTCCGCTAACGGGTACG"
property_label = "PBM binding z-score"
measured_result = 0.788

[[record]]
sequence_data = "CCGACTGGGGCTTAAGGTTACCATAAGCCAGCCC"
property_label = "PBM binding z-score"
measured_result = 1.84

[[record]]
sequence_data = "ATCGAAAGGTCGAGGTGAGTATGGAGAAAGGGAA"
property_label = "PBM binding z-score"
measured_result = 3.28

[[record]]
sequence_data = "ATATGTAGGTTACATCCGGGTGATTCAGGCTATG"
property_label = "PBM binding z-score"
measured_result = 4.47

[[record]]
sequence_data = "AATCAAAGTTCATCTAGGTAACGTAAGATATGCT"
property_label = "PBM binding z-score"
measured_result = 6.2

[[record]]
sequence_data = "CCTACTGGGCCAAGGTCATGGATCAGTCAAAGCA"
property_label = "PBM binding z-score"
measured_result = 3.08

[[record]]
sequence_data = "AACACAGGGTCATCGTAGGCCAGAGTACGCACAG"
property_label = "PBM binding z-score"
measured_result = 6.21

[[record]]
sequence_data = "CAAACTAGGTCACGAAAGGTCGAAGTCGAATGAC"
property_label = "PBM binding z-score"
measured_result = 6.62

[[record]]
sequence_data = "CCTGTTAGTTGACCATAAGGGCAACCGAAGCTCG"
property_label = "PBM binding z-score"
measured_result = 0.297

[[record]]
sequence_data = "CGTCCAAGGTCAGAGGTCAGTGAAGAGATGACGG"
property_label = "PBM binding z-score"
measured_result = 5.39

[[record]]
sequence_data = "CCAGACAGGTGAAAGCTAACTCAGTCTGGTACGC"
property_label = "PBM binding z-score"
measured_result = -0.206

[[record]]
sequence_data = "AGAACGTGGGCACGCTGAGTTGATAGCAGAGTAG"
property_label = "PBM binding z-score"
measured_result = -0.538

[[record]]
sequence_data = "GCTATTAGTTCAAAGGGCAACCGAATGATTCTCG"
property_label = "PBM binding z-score"
measured_result = 2.89

[[record]]
sequence_data = "CAGCCTAGGTCAGGGCCGGTATAGGAGGAACGTT"
property_label = "PBM binding z-score"
measured_result = 0.777

[[record]]
sequence_data = "AGATCGAGGGCAATGAGTTGATAGCACGGGTGGC"
property_label = "PBM binding z-score"
measured_result = 0.121

[[record]]
sequence_data = "TCTATTAGTTGAAGAGCAACCGACGAGTCCGTTT"
property_label = "PBM binding z-score"
measured_result = 0.663

[[record]]
sequence_data = "ATCTCTAGGTAACCAGGTTCAGTGAATGCCGAAC"
property_label = "PBM binding z-score"
measured_result = 0.277

[[record]]
sequence_data = "ACTTACGGGTCAACGAGGTTATGGCACGCGTATA"
property_label = "PBM binding z-score"
measured_result = 5.06

[[record]]
sequence_data = "ACAGACAGGTGAGTGAAAGTAACTCAGCTGGACG"
property_label = "PBM binding z-score"
measured_result = 0.239

[[record]]
sequence_data = "TCGAGTAGGTTACCAATGGGGCATTCAACTTTCT"
property_label = "PBM binding z-score"
measured_result = 1.64

[[record]]
sequence_data = "ACAGACAGGTGATGAAGGTAACTCTGGCTATCAT"
property_label = "PBM binding z-score"
measured_result = -0.358

[[record]]
sequence_data = "CCTTACGGGTCAAGGTGATAGCACGGGTGGTACG"
property_label = "PBM binding z-score"
measured_result = 3.5

